Below: a set of entries, each annotated with reported pKi.
study.system: human orexin 1 receptor (Homo sapiens, UniProt O43613)
test.method.notes: Human orexin 1 receptor radioligand binding
protocol.conditions: human orexin 1 receptor radioligand binding; averages of 2-20 runs; read-out: hOX1 Ki
pKi: −log10 of the molar value.
observed.property: pKi

[
  {
    "compound": "C[C@H]1[C@H](Nc2cnc(C(F)(F)F)cn2)CCCN1C(=O)c1ccc(F)cc1-c1ncccn1 (relative stereo)",
    "study.system": "human orexin 1 receptor (Homo sapiens, UniProt O43613)",
    "numeric.value": 7.60
  },
  {
    "compound": "C[C@H]1[C@H](Oc2ncc(C(F)(F)F)cc2F)CCCN1C(=O)c1cccc(F)c1-n1nccn1",
    "study.system": "human orexin 1 receptor (Homo sapiens, UniProt O43613)",
    "numeric.value": 7.85
  },
  {
    "compound": "COc1ccc(-n2nccn2)c(C(=O)N2CCC[C@@H](Nc3ncc(C(F)(F)F)cn3)[C@@H]2C)c1",
    "study.system": "human orexin 1 receptor (Homo sapiens, UniProt O43613)",
    "numeric.value": 8.05
  },
  {
    "compound": "Cc1ccc(-n2nccn2)c(C(=O)N2CCC[C@@H](Oc3ncc(Cl)cn3)[C@@H]2C)n1",
    "study.system": "human orexin 1 receptor (Homo sapiens, UniProt O43613)",
    "numeric.value": 6.64
  },
  {
    "compound": "C[C@H]1[C@H](Nc2ccc(C(F)(F)F)cn2)CCCN1C(=O)c1ccc(F)cc1-c1ncccn1 (relative stereo)",
    "study.system": "human orexin 1 receptor (Homo sapiens, UniProt O43613)",
    "numeric.value": 8.05
  },
  {
    "compound": "Cc1cccc(C(=O)N2CCC[C@@H](Oc3ncc(C(F)(F)F)cn3)[C@@H]2C)c1-c1ncc(F)cn1",
    "study.system": "human orexin 1 receptor (Homo sapiens, UniProt O43613)",
    "numeric.value": 7.31
  },
  {
    "compound": "COc1ccc(C(=O)N2CCC[C@@H](Nc3ccc(Cl)cn3)[C@@H]2C)c(-n2nccn2)c1 (relative stereo)",
    "study.system": "human orexin 1 receptor (Homo sapiens, UniProt O43613)",
    "numeric.value": 6.75
  },
  {
    "compound": "C[C@H]1[C@H](Oc2ncc(C(F)(F)F)cc2F)CCCN1C(=O)c1ccccc1-c1ncccn1",
    "study.system": "human orexin 1 receptor (Homo sapiens, UniProt O43613)",
    "numeric.value": 7.66
  },
  {
    "compound": "Cc1cnc(C(=O)N2CCC[C@@H](Oc3cnc(C(F)(F)F)cn3)[C@@H]2C)c(-n2nccn2)c1",
    "study.system": "human orexin 1 receptor (Homo sapiens, UniProt O43613)",
    "numeric.value": 6.57
  },
  {
    "compound": "Cc1ccc(C(=O)N2CCC[C@@H](Oc3ccc(C(F)(F)F)cn3)[C@@H]2C)c(-n2nccn2)c1",
    "study.system": "human orexin 1 receptor (Homo sapiens, UniProt O43613)",
    "numeric.value": 7.96
  },
  {
    "compound": "CCOc1ccc(C)nc1C(=O)N1CCC[C@@H](Nc2ncc(C(F)(F)F)cn2)[C@@H]1C (relative stereo)",
    "study.system": "human orexin 1 receptor (Homo sapiens, UniProt O43613)",
    "numeric.value": 6.69
  },
  {
    "compound": "Cc1ccc(-n2nccn2)c(C(=O)N2CCC[C@@H](Oc3ncc(C(F)(F)F)cc3F)[C@@H]2C)n1",
    "study.system": "human orexin 1 receptor (Homo sapiens, UniProt O43613)",
    "numeric.value": 7.66
  },
  {
    "compound": "Cc1noc(-c2cc(F)ccc2C(=O)N2CCC[C@@H](Nc3ccc(C(F)(F)F)cn3)[C@@H]2C)n1 (relative stereo)",
    "study.system": "human orexin 1 receptor (Homo sapiens, UniProt O43613)",
    "numeric.value": 7.74
  },
  {
    "compound": "Cc1cccc(C(=O)N2CCC[C@@H](Oc3ncc(C(F)(F)F)cc3F)[C@@H]2C)c1-c1ncccn1",
    "study.system": "human orexin 1 receptor (Homo sapiens, UniProt O43613)",
    "numeric.value": 7.60
  },
  {
    "compound": "Cc1cnc(-n2nccn2)c(C(=O)N2CCC[C@@H](Oc3cnc(C(F)(F)F)cn3)[C@@H]2C)c1",
    "study.system": "human orexin 1 receptor (Homo sapiens, UniProt O43613)",
    "numeric.value": 6.78
  },
  {
    "compound": "Cc1ccc(C(=O)N2CCC[C@@H](Nc3ccc(C(F)(F)F)cn3)[C@@H]2C)c(-n2nccn2)n1",
    "study.system": "human orexin 1 receptor (Homo sapiens, UniProt O43613)",
    "numeric.value": 7.68
  }
]
